target: SARS-CoV-2 Mpro (Severe acute respiratory syndrome coronavirus 2); test: biochemical; conditions: read-out: Maximum inhibition (%), efficacy compared to negative control (vehicle, DMSO); compounds 0.001 to 1000 μM; enzyme 1.5 μM, substrate 50 μM
Please respond with reported Emax for every item in the list.
Respond with the bare value in %.

### Prompt Look up SARS-CoV-2 Mpro (Severe acute respiratory syndrome coronavirus 2) data: Emax of COC(=O)[C@H](CO)NC(=O)C[C@H](O)[C@@H](N)Cc1ccccc1.O=C(O)C(F)(F)F , then report it.
### Response 57

### Prompt Provide measured Emax on SARS-CoV-2 Mpro (Severe acute respiratory syndrome coronavirus 2) for CC(C)(C)OC(=O)N[C@@H](Cc1ccccc1)[C@@H](O)CC(=O)N[C@@H](Cc1ccccc1)C(=O)NN please.
### Response 61

### Prompt GET Emax where system = SARS-CoV-2 Mpro (Severe acute respiratory syndrome coronavirus 2) and item = COC(=O)[C@H](CO)NC(=O)C[C@H](O)[C@H](Cc1ccccc1)NC(=O)OC(C)(C)C
### Response 70

### Prompt Using SARS-CoV-2 Mpro (Severe acute respiratory syndrome coronavirus 2) as the test system, report measured Emax of COC(=O)[C@H](Cc1ccc(O)cc1)NC(=O)C[C@H](O)[C@@H](N)Cc1ccccc1.O=C(O)C(F)(F)F .
### Response 52

### Prompt Give SARS-CoV-2 Mpro (Severe acute respiratory syndrome coronavirus 2) Emax for the following compound: COC(=O)[C@@H](NC(=O)C[C@H](OC(C)=O)[C@H](Cc1ccccc1)NC(=O)OC(C)(C)C)C(C)C
### Response 66

---

assay: in vitro; settings: human
MEASURE_NAME: CC50 at 72 h

### Prompt Give CC50 at 72 h for the following compound: COC(=O)[C@H](Cc1ccccc1)NC(=O)C[C@H](OC(C)=O)[C@H](Cc1ccccc1)NC(=O)OC(C)(C)C
### Response > 200 µM

### Prompt Consider the compound COC(=O)[C@@H](O)CNC(=O)C[C@H](O)[C@H](Cc1ccccc1)NC(=O)OC(C)(C)C and give its recorded CC50 at 72 h.
### Response > 200 µM

---

tested on: SARS-CoV-2 B.1 lineage isolate; test: in vitro; conditions: human
MEASURE_NAME: selectivity ratio

### Prompt Give the measured selectivity ratio for COC(=O)[C@@H](O)CNC(=O)C[C@H](O)[C@H](Cc1ccccc1)NC(=O)OC(C)(C)C [Compound 7d]
### Response > 114

### Prompt Return value of selectivity ratio for input COC(=O)[C@H](Cc1ccccc1)NC(=O)C[C@H](OC(C)=O)[C@H](Cc1ccccc1)NC(=O)OC(C)(C)C [Compound 8e] , no commentary.
### Response > 112

### Prompt Identify measured selectivity ratio corresponding to COC(=O)N[C@H](C(=O)N[C@@H](Cc1ccccc1)[C@@H](O)CN(Cc1ccc(-c2ccccn2)cc1)NC(=O)[C@@H](NC(=O)OC)C(C)(C)C)C(C)(C)C [ATV, atazanavir, reference compound]
### Response > 131

### Prompt Return selectivity ratio for the following compound: COC(=O)[C@@H](NC(=O)C[C@H](O)[C@@H](N)Cc1ccccc1)C(C)C.O=C(O)C(F)(F)F [Compound 9g]
### Response > 132

---

For each of the molecules below, state its pIC50.
Convention used: pIC50 is expressed as -log10 of the molar concentration.

### Prompt Report pIC50 from SARS-CoV-2 Mpro (Severe acute respiratory syndrome coronavirus 2, UniProt P0DTD1) testing of COC(=O)[C@@H](O)CNC(=O)C[C@H](O)[C@H](Cc1ccccc1)NC(=O)OC(C)(C)C
### Response 6.03

### Prompt Report its pIC50 with SARS-CoV-2 Mpro (Severe acute respiratory syndrome coronavirus 2, UniProt P0DTD1) as the test system: COC(=O)[C@H](COC(C)=O)NC(=O)C[C@H](OC(C)=O)[C@H](Cc1ccccc1)NC(=O)OC(C)(C)C
### Response 3.00

### Prompt Specify the recorded pIC50 for COC(=O)[C@@H](NC(=O)C[C@H](OC(C)=O)[C@H](Cc1ccccc1)NC(=O)OC(C)(C)C)[C@H](C)OC(C)=O , system: SARS-CoV-2 Mpro (Severe acute respiratory syndrome coronavirus 2, UniProt P0DTD1).
### Response 5.61

### Prompt Fill: pIC50 (SARS-CoV-2 Mpro (Severe acute respiratory syndrome coronavirus 2, UniProt P0DTD1)) for this molecule COC(=O)[C@@H](NC(=O)C[C@H](O)[C@@H](N)Cc1ccccc1)C(C)C.O=C(O)C(F)(F)F
### Response 6.21

### Prompt Please look at COC(=O)[C@H](Cc1ccccc1)NC(=O)C[C@H](OC(C)=O)[C@H](Cc1ccccc1)NC(=O)OC(C)(C)C and tell me its recorded pIC50 on SARS-CoV-2 Mpro (Severe acute respiratory syndrome coronavirus 2, UniProt P0DTD1).
### Response 6.22

### Prompt Give SARS-CoV-2 Mpro (Severe acute respiratory syndrome coronavirus 2, UniProt P0DTD1) pIC50 for the following molecule: COC(=O)[C@H](CC(C)C)NC(=O)C[C@H](O)[C@@H](N)Cc1ccccc1.O=C(O)C(F)(F)F
### Response 3.11

### Prompt Provide pIC50, system SARS-CoV-2 Mpro (Severe acute respiratory syndrome coronavirus 2, UniProt P0DTD1), entry COC(=O)[C@H](CC(C)C)NC(=O)C[C@H](OC(C)=O)[C@H](Cc1ccccc1)NC(=O)OC(C)(C)C
### Response 6.41

---

target: SARS-CoV-2 Mpro (Severe acute respiratory syndrome coronavirus 2, UniProt P0DTD1); experiment: biochemical; details: read-out: Maximum inhibition (%), efficacy compared to negative control (vehicle, DMSO); compounds 0.001 to 1000 μM; enzyme 1.5 μM, substrate 50 μM
MEASURE_NAME: Emax

### Prompt Provide only the value of recorded Emax for COC(=O)[C@H](CC(C)C)NC(=O)C[C@H](OC(C)=O)[C@H](Cc1ccccc1)NC(=O)OC(C)(C)C
### Response ≥ 60%

### Prompt Give me measured Emax, please, for this molecule: COC(=O)[C@H](CC(C)C)NC(=O)C[C@H](O)[C@@H](N)Cc1ccccc1.O=C(O)C(F)(F)F
### Response 58%

### Prompt Note Emax for the molecule shown: COC(=O)[C@H](Cc1ccccc1)NC(=O)C[C@H](O)[C@@H](N)Cc1ccccc1
### Response 51%

### Prompt Note Emax for the molecule shown: COC(=O)[C@H](CC(C)C)NC(=O)C[C@H](O)[C@H](Cc1ccccc1)NC(=O)OC(C)(C)C
### Response < 50%

### Prompt Provide measured Emax value, entry: COC(=O)[C@H](Cc1ccccc1)NC(=O)C[C@H](OC(C)=O)[C@H](Cc1ccccc1)NC(=O)OC(C)(C)C
### Response > 70%

### Prompt Query Emax for COC(=O)[C@@H](NC(=O)C[C@H](O)[C@H](Cc1ccccc1)NC(=O)OC(C)(C)C)[C@H](C)O
### Response < 50%

### Prompt Could you please provide reported Emax for COC(=O)[C@@H]1CCCN1C(=O)C[C@H](O)[C@@H](N)Cc1ccccc1 ? Thanks!
### Response 68%

---

Exercise: for every item that follows, state its recorded Emax.
target: SARS-CoV-2 Mpro (Severe acute respiratory syndrome coronavirus 2, UniProt P0DTD1); experiment: biochemical; details: read-out: Maximum inhibition (%), efficacy compared to negative control (vehicle, DMSO); compounds 0.001 to 1000 μM; enzyme 1.5 μM, substrate 50 μM
Form entry: value (%) — number only.

### Prompt Report Emax under test system SARS-CoV-2 Mpro (Severe acute respiratory syndrome coronavirus 2, UniProt P0DTD1) for COC(=O)[C@H](Cc1ccc(OC(C)=O)cc1)NC(=O)C[C@H](OC(C)=O)[C@H](Cc1ccccc1)NC(=O)OC(C)(C)C [Compound 8b] .
### Response 65

### Prompt GET Emax | system: SARS-CoV-2 Mpro (Severe acute respiratory syndrome coronavirus 2, UniProt P0DTD1) | item: COC(=O)[C@H](COC(C)=O)NC(=O)C[C@H](OC(C)=O)[C@H](Cc1ccccc1)NC(=O)OC(C)(C)C [Compound 8a]
### Response 50

### Prompt Give Emax; test system SARS-CoV-2 Mpro (Severe acute respiratory syndrome coronavirus 2, UniProt P0DTD1); compound COC(=O)[C@H](Cc1ccc(O)cc1)NC(=O)C[C@H](O)[C@H](Cc1ccccc1)NC(=O)OC(C)(C)C [Compound 7b]
### Response 70

---

Provide the reported melting point of each item.

### Prompt For the compound COC(=O)[C@H](Cc1ccc(O)cc1)NC(=O)C[C@H](O)[C@@H](N)Cc1ccccc1.O=C(O)C(F)(F)F , report melting point.
### Response 98 to 99 °C

### Prompt Please list melting point recorded for the compound COC(=O)[C@H](Cc1ccccc1)NC(=O)C[C@H](O)[C@H](Cc1ccccc1)NC(=O)OC(C)(C)C
### Response 79 to 80 °C

### Prompt Answer with the recorded melting point of COC(=O)[C@H](CO)NC(=O)C[C@H](O)[C@@H](N)Cc1ccccc1.O=C(O)C(F)(F)F only.
### Response 120 to 121 °C

### Prompt Using known records, supply melting point for COC(=O)[C@@H](NC(=O)C[C@H](OC(C)=O)[C@H](Cc1ccccc1)NC(=O)OC(C)(C)C)[C@H](C)OC(C)=O
### Response 54 to 55 °C

### Prompt Read the entry COC(=O)[C@H](COC(C)=O)NC(=O)C[C@H](OC(C)=O)[C@H](Cc1ccccc1)NC(=O)OC(C)(C)C and write its reported melting point.
### Response 97 to 98 °C

### Prompt Dear colleague, please send me the reported melting point for COC(=O)[C@@H]1CCCN1C(=O)C[C@H](OC(C)=O)[C@H](Cc1ccccc1)NC(=O)OC(C)(C)C when you can.
### Response 90 to 92 °C

### Prompt Retrieve melting point measured for COC(=O)[C@H](Cc1ccc(O)cc1)NC(=O)C[C@H](O)[C@H](Cc1ccccc1)NC(=O)OC(C)(C)C and print it.
### Response 60 to 62 °C

### Prompt Quick one: give measured melting point for COC(=O)[C@@H](O)CNC(=O)C[C@H](O)[C@H](Cc1ccccc1)NC(=O)OC(C)(C)C
### Response 65 to 66 °C

### Prompt Please supply the value of reported melting point for the item COC(=O)[C@H](Cc1ccccc1)NC(=O)C[C@H](OC(C)=O)[C@H](Cc1ccccc1)NC(=O)OC(C)(C)C
### Response 89 to 91 °C

### Prompt Please give the documented melting point of COC(=O)[C@H](Cc1ccc(OC(C)=O)cc1)NC(=O)C[C@H](OC(C)=O)[C@H](Cc1ccccc1)NC(=O)OC(C)(C)C
### Response 88 to 89 °C

### Prompt Note down melting point recorded for COC(=O)[C@H](CC(C)C)NC(=O)C[C@H](OC(C)=O)[C@H](Cc1ccccc1)NC(=O)OC(C)(C)C
### Response 94 to 95 °C

### Prompt Recall and state the measured melting point for COC(=O)[C@@H](NC(=O)C[C@H](O)[C@H](Cc1ccccc1)NC(=O)OC(C)(C)C)[C@H](C)O .
### Response 124 to 125 °C

### Prompt For the compound COC(=O)[C@H](CC(C)C)NC(=O)C[C@H](O)[C@@H](N)Cc1ccccc1.O=C(O)C(F)(F)F , give its measured melting point value.
### Response 147 to 148 °C
